Measured values drawn from ChEMBL document CHEMBL1125140 for this set.

test system: L1210; assay: Post inoculation lifespan was determined in L1210 Inoculated mice at a dose of 22 mg/Kg after a single treatment; format: functional, Mus musculus
The following compounds are shown together with reported T/C values.
Give the quantity in %, number only.

CC(=O)OC[C@H]1O[C@@H](n2cnc3c([S+](N)[O-])nc(N)nc32)[C@H](OC(C)=O)[C@@H]1OC(C)=O (some centres undefined)	99

**Q:** Entry Nc1nc([S+](N)[O-])c2[nH]cnc2n1 (centres undefined) has what T/C?
**A:** 113

**Q:** Request the reported T/C associated with NSc1nc(N)nc2c1ncn2C1O[C@H](CO)[C@@H](O)[C@H]1O (some centres undefined)
**A:** 170

**Q:** # get_value(readout='T/C', item= `Nc1nc(S(N)(=O)=O)c2[nH]cnc2n1` )
**A:** 103
